# Tested on: HL-1
# method: relative cell viability (CellTiter-Glo) vs DMSO control (% of DMSO control); higher = more viable cells
# conditionLabel: oxygen condition: normoxia 72 h; 40 nM
Counter-ions that a name gives are not always drawn.
reportedEndpoint: relative cell viability
Just the number.

A selection of reference data follows.
molecule	relative cell viability
COc1cc([C@@H]2c3cc4c(cc3[C@@H](O[C@@H]3O[C@@H]5CO[C@@H](c6cccs6)O[C@H]5[C@H](O)[C@H]3O)[C@H]3COC(=O)[C@H]23)OCO4)cc(OC)c1O [Teniposide]	105
C[C@@]12C[C@@]3(O)O[C@@H](O1)[C@]1(COC(=O)c4ccccc4)[C@H]3C[C@@]12O[C@@H]1O[C@H](CO)[C@@H](O)[C@H](O)[C@H]1O	107
CCOC(=O)c1ccc(OC(=O)CCCCCNC(=N)N)cc1 [Gabexate mesylate]	101
CCCCCCCCOc1ccccc1C(=O)Nc1ccc(C(=O)OCC[N+](C)(CC)CC)cc1 [Otilonium Bromide]	107
CC(C)NC[C@H](O)COc1ccc(CCOCC2CC2)cc1 [Levobetaxolol HCl]	105
CN(N=O)C(=O)N[C@@H](C=O)[C@@H](O)[C@H](O)[C@H](O)CO	99.9
Oc1ncnc2[nH]ncc12	105
CN1CCC[C@H]1c1cccnc1 [Nicotine Ditartrate]	104
O=NN(CCCl)C(=O)NC1CCCCC1	108
c1ccc2c(CC3=NCCN3)cccc2c1 [Naphazoline hydrochloride]	98.8

Form field relative cell viability, entry CCCCNc1cc(C(=O)O)cc(S(N)(=O)=O)c1Oc1ccccc1 [Bumetanide] : 105

Form field relative cell viability, entry CCCCOc1ccc(OCCCN2CCOCC2)cc1 [Pramoxine HCl] : 110

Form field relative cell viability, entry CCOC(=O)C1=C(COCCN)NC(C)=C(C(=O)OC)C1c1ccccc1Cl (configuration not stated) [Amlodipine besylate] : 103

Form field relative cell viability, entry Cc1ccc(S(=O)(=O)NC(=O)NN2CCCCCC2)cc1 [Tolazamide] : 102

====

# Test system: HL-1
# method: relative cell viability (CellTiter-Glo) vs DMSO control (% of DMSO control); higher = more viable cells
# conditionLabel: oxygen condition: hypoxia 48 h (1% O2) + reoxygenation 24 h; 200 nM
The following compounds are listed with their measured relative cell viability values.

Form field relative cell viability, entry `CCCCC1=NC2(CCCC2)C(=O)N1Cc1ccc(-c2ccccc2-c2nnn[nH]2)cc1` : 102

====

# Tested on: HL-1
# method: relative cell viability (CellTiter-Glo) vs DMSO control (% of DMSO control); higher = more viable cells
# conditionLabel: oxygen condition: hypoxia 48 h (1% O2) + reoxygenation 24 h; 40 nM
Where a name gives a salt, the structure may show the parent alone.
reportedEndpoint: relative cell viability

A selection of reference data follows.
molecule	relative cell viability
O=c1[nH]c(=O)n(C2CCCO2)cc1F (stereo not drawn)	101
CC(=O)OCC(=O)[C@H]1CC[C@H]2[C@@H]3CCC4=CC(=O)CC[C@]4(C)[C@H]3CC[C@]12C [Deoxycorticosterone acetate]	103

Let's switch to this molecule now.
Form field relative cell viability, entry CCCC(=O)Nc1ccc(OCC(O)CNC(C)C)c(C(C)=O)c1 (stereo not drawn) [Acebutolol HCl] : 102

====

# Tested on: HL-1
# method: relative cell viability (CellTiter-Glo) vs DMSO control (% of DMSO control); higher = more viable cells
# conditionLabel: oxygen condition: normoxia 72 h; 40 nM
Structures can show the parent of a compound that is named as a salt.
reportedEndpoint: relative cell viability
Just the number.

molecule	testTarget	relative cell viability
CN1C2=CC(=O)/C(=N\NC(N)=O)C=C2CC1S(=O)(=O)O (stereo not drawn) [Carbazochrome sodium sulfonate]	HL-1	95
CCN(CC)CC#CCOC(=O)C(O)(c1ccccc1)C1CCCCC1 (stereo not drawn) [Oxybutynin]	HL-1	109
N[C@@H]1CN(c2c(F)cc3c(=O)c(C(=O)O)cn([C@@H]4C[C@@H]4F)c3c2Cl)CC12CC2 [Sitafloxacin hydrate]	HL-1	103
N#C[C@@H]1CCCN1C(=O)CNC12CC3CC(CC(O)(C3)C1)C2 [Vildagliptin]	HL-1	103
CN1CCOC(c2ccccc2)c2ccccc2C1 (stereo not drawn) [Nefopam HCl]	HL-1	60.3

Form field relative cell viability, entry O=P(O)(O)C(O)(Cc1cccnc1)P(=O)(O)O [Risedronate sodium] : 111

Form field relative cell viability, entry COC(=O)N[C@H](C(=O)N[C@@H](Cc1ccccc1)[C@@H](O)CN(Cc1ccc(-c2ccccn2)cc1)NC(=O)[C@@H](NC(=O)OC)C(C)(C)C)C(C)(C)C [Atazanavir sulfate] : 101

Form field relative cell viability, entry Cc1cc(C#N)cc(C)c1Oc1nc(Nc2ccc(C#N)cc2)nc(N)c1Br [Etravirine] : 108
